- System: rat aortic ring segments
- measurement.notes: Isometric tension: vasodilation of rat aortic ring segments preconstricted with phenylephrine
- Format: cell-based
- measurement.parameters: Log [M] −6
readout.kind: Isometric tension, relaxation (Mean ± SEM) (%)
Provide the reading as a plain figure in %.

Consider the worked cases shown below.
molecule="CCCCC(=O)N(Cc1ccc(-c2ccccc2-c2nnn[nH]2)cc1)C(C(=O)N(C)CCCCO[N+](=O)[O-])C(C)C (stereo not shown)" unit_of_measurement=% recorded_value=7.43
molecule="O=[N+]([O-])OCCCCO [HBN, 1-Hydroxy-4-butyl nitrate]" unit_of_measurement=% recorded_value=7.11

QUERY: Give Isometric tension, relaxation (Mean ± SEM) for the following molecule: CCCCC(=O)N(Cc1ccc(-c2ccccc2-c2nnn[nH]2)cc1)[C@H](C(=O)O)C(C)C
RESULT: 1.05

QUERY: Respond only with Isometric tension, relaxation (Mean ± SEM) recorded for CNCCCCO[N+](=O)[O-].O=[N+]([O-])O
RESULT: 8.33
